Target: CDK9/CycT1 (Homo sapiens)
Construct: Recombinant full-length His-tagged human CDK9 and CycT1; His; purchased Invitrogen PV4131; host or cells: insect cells
Sequence (P50750 whole entry): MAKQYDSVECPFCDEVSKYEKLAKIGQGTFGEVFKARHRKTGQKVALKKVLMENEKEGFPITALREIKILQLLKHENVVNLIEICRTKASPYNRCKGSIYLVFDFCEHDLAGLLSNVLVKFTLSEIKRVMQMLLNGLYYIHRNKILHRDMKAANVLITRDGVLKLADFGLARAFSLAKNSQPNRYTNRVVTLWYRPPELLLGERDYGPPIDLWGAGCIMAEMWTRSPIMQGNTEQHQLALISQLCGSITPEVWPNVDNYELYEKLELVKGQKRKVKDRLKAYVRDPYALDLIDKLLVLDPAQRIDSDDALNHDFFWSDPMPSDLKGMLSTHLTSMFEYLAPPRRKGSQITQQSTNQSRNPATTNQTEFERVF
Sequence (O60563 whole entry partner): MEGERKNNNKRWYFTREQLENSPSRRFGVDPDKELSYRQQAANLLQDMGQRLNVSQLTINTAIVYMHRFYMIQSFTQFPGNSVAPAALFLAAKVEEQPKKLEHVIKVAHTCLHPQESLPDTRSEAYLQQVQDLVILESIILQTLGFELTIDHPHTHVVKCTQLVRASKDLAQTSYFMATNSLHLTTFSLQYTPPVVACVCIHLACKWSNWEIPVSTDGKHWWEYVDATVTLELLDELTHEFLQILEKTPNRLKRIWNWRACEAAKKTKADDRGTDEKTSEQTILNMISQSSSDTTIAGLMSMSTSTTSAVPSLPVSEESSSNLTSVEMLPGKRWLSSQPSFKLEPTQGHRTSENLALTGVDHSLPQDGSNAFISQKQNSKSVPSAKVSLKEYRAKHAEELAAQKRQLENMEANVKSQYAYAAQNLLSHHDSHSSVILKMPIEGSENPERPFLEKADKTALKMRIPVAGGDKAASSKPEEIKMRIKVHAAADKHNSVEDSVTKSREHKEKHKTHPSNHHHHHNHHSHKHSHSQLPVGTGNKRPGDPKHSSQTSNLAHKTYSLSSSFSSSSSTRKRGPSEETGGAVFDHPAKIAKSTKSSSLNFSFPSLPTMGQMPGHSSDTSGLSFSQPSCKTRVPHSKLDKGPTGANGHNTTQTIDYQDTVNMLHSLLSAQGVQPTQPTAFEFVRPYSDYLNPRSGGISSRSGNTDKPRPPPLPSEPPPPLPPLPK
Assay: CDK9/CycT1 high ATP kinase assay (TR-FRET, Method 1b)
Format: biochemical
Conditions: Method 1b, 2 mM ATP
Experimental: 1b. CDK9/CycT1 High ATP Kinase Assay CDK9/CycT1-inhibitory activity of compounds of the present invention at a high ATP concentration after preincubation of enzyme and test compounds was quantified employing the CDK9/CycT1 TR-FRET assay as described in the following paragraphs. Recombinant full-length His-tagged human CDK9 and CycT1, expressed in insect cells and purified by Ni-NTA affinity chromatography, were purchase from Invitrogen (Cat. No PV4131). […]
pIC50: −log10 of the molar value.
reported property: pIC50

a. CC(C)(C)OC(=O)N=S(C)(=O)Cc1cc2cc(c1)OCCCNc1cc(F)ccc1-c1nc(ncc1F)N2 (racemic)
b. CC(C)(C)OC(=O)N=S(C)(=O)Cc1cc2cc(c1)Nc1ncc(F)c(n1)-c1ccc(F)cc1OCCCCN2 (racemic)
Min pIC50? a | b Give the label under which the chosen entry appears.
b

P. CSCc1cc2nc(c1)OCCCCc1cc(F)ccc1-c1cc(ncc1F)N2
Q. CS(=N)(=O)Cc1cc2cc(c1)OCCCNc1cc(F)ccc1-c1nc(ncc1F)N2 (racemic)
R. CSCc1cc2nc(c1)Nc1cc(c(F)cn1)-c1ccc(F)cc1OCCCN2
S. CC(C)(C)OC(=O)N=S(C)(=O)Cc1cc2nc(c1)Nc1cc(c(F)cn1)-c1ccc(F)cc1OCCCCCN2 (racemic)
T. CN1CCCCOc2cc(F)ccc2-c2nc(ncc2F)Nc2cc(CS(C)(=N)=O)cc1c2 (racemic)
// ascending sort on recorded pIC50 // format: requested-order list of labels
P, S, R, T, Q
(P: 6.49, S: 8.17, R: 8.42, T: 8.68, Q: 9.00)

I. CS(=N)(=O)Cc1cc2cc(c1)Nc1ncc(F)c(n1)-c1ccc(F)cc1OCCCCN2 (racemic)
II. CS(=N)(=O)Cc1cc2nc(c1)Nc1cc(c(F)cn1)-c1ccc(F)cc1OCCCN2 (racemic)
Min pIC50? I | II Give the label under which the chosen entry appears.
I

* * *

target: CDK9/CycT1 (Homo sapiens); construct: Recombinant full-length His-tagged human CDK9 and CycT1; His; purchased Invitrogen PV4131; host or cells: insect cells; test: CDK9/CycT1 kinase assay (TR-FRET, Method 1a); assay type: biochemical; conditions: Method 1a, 10 μM ATP
pIC50: −log10 of the molar value.
reported property: pIC50

A. CS(=N)(=O)Cc1cc2nc(c1)Nc1cc(c(F)cn1)-c1ccc(F)cc1OCCCCN2 (racemic) [Example 3]
B. CS(=O)(Cc1cc2nc(c1)Nc1cc(c(F)cn1)-c1ccc(F)cc1OCCCCN2)=NC(=O)OCc1ccccc1 (racemic) [Example 2]
Quick check, higher pIC50 between A and B ? Give the label under which the chosen entry appears.
A

* * *

test system: B16F10 cells; test: Proliferation assay, crystal violet (Method 3); assay type: cell-based; settings: Mus musculus, B16-F10, 96 h; B16F10, 4 days; read-out: Inhibition of B16F10 cell proliferation IC50
reported property: IC50 (nM)

                                   compound  quantity_unit  readout_value
0  CC(C)(C)OC(=O)N=S(C)(=O)Cc1cc2nc(c1)Nc1cc(c(F)cn1)-c1ccc(F)cc1OCCCN2 (racemic)             nM             44

P. CS(=N)(=O)Cc1cc2cc(c1)OCCCCNc1cc(F)ccc1-c1nc(ncc1F)N2 (racemic)
Q. CN1CCCCNc2cc(F)ccc2-c2nc(ncc2F)Nc2cc(CS(C)(=N)=O)cc1c2.O=CO (racemic)
Quick check, higher IC50 between P and Q ? Give the label under which the chosen entry appears.
Q
(Q: 38 nM, P: 18 nM)

Source of measurements: patent US10214542B2
